assay: qHTS assay to identify small molecule antagonists of the farnesoid-X-receptor (FXR) signaling pathway - cell viability counter screen (AID 743221); conditions: FXR-bla HEK293T viability, CellTiter-Glo luminescence, 16 h; series mostly up to 62.6 µM; note: nearly all actives have a fitted effect of over 50% in size
Records with an inconclusive call do not appear. The source made the active and inactive calls. Calls come from the whole dose curve; as a rule, active = well fitted cell-killing curve with a large enough effect in the repeat runs (not every such curve was filed as active); inconclusive = weak or mixed curves, or effect the other way; inactive = no such curve, though single readings can be large or run the other way.

{"smiles_code": "Cc1cc(C)cc(O)c1", "outcome": "inactive"}
{"smiles_code": "C=CC(C)(C)C", "outcome": "inactive"}
{"smiles_code": "COCN(COC)c1nc(N(COC)COC)nc(N(COC)COC)n1", "outcome": "inactive"}

* * *

experiment: qHTS assay for identifying genotoxic compounds that show differential cytotoxicity against isogenic chicken DT40 cell lines with known DNA damage response pathways - Rad54/Ku70 mutant cell line (AID 743015); conditions: DT40 Rad54/Ku70 mutant viability, CellTiter-Glo, 40 h; series mostly up to 66.8 µM; note: nearly all actives have a fitted effect of over 60% in size
Records with an inconclusive call do not appear. The source made the active and inactive calls. Calls come from the whole dose curve; as a rule, active = well fitted cell-killing curve with a large enough effect in the repeat runs; inconclusive = weak or mixed curves; inactive = no such curve, though single readings can be large or run the other way.
Your reply should match one of these outcome classes. YES = active, NO = inactive

Req: Tell me the assay call for OC[C@H]1O[C@@H](Oc2ccc(O)cc2)[C@H](O)[C@@H](O)[C@@H]1O please.
Resp: NO

Req: Tell me the assay call for N#CCC(=O)O please.
Resp: NO

Req: Tell me the assay call for NC(N)=S please.
Resp: NO

Req: Tell me the assay call for CC1=CC(=O)CC(C)(C)C1 please.
Resp: NO

Req: Tell me the assay call for COc1ccc([C@@H]2CC(=O)c3c(O)cc(O[C@@H]4O[C@H](CO[C@@H]5O[C@@H](C)[C@H](O)[C@@H](O)[C@H]5O)[C@@H](O)[C@H](O)[C@H]4O)cc3O2)cc1OC please.
Resp: NO

Req: Tell me the assay call for OCc1ccc(Cl)cc1Cl please.
Resp: NO

Req: Tell me the assay call for CC(=O)CC(=O)N(C)C please.
Resp: NO

Req: Tell me the assay call for O=C(c1ccccc1)c1ccc(O)c(O)c1O please.
Resp: YES

Req: Tell me the assay call for CCOC(=O)CC(=O)OCC please.
Resp: NO

Req: Tell me the assay call for O=Cc1ccc(CO)o1 please.
Resp: NO

* * *

molecular target: Cytochrome P450 2C9 (Homo sapiens); assay: Cytochrome P450 Family 2 Subfamily C Member 9 (CYP2C9) small molecule antagonists: luciferase reporter qHTS assay (AID 1671198); conditions: P450-Glo CYP2C9 enzyme assay, luciferin luminescence; series mostly up to 115 µM; note: nearly all actives have a fitted effect of over 50% in size
Results filed as inconclusive are left out. Activity calls are given as the source filed them. The call rests on the fitted dose curve; in most records, active means well fitted inhibition curve with a large enough effect in the repeat runs; inconclusive means weak or mixed curves; inactive means no such curve, though single readings can be large or run the other way.
Your reply should match one of these outcome classes. Yes = active, No = inactive

Req: Tell me the assay call for CC(C)(C)NC[C@H](O)COc1nsnc1N1CCOCC1 please.
Resp: No

Req: Tell me the assay call for CN1CCCC1=O please.
Resp: No

Req: Tell me the assay call for NC(N)=S please.
Resp: No

Req: Tell me the assay call for CC/C(C)=N/O please.
Resp: No

Req: Tell me the assay call for CC(C)(CO)CO please.
Resp: No

Req: Tell me the assay call for C[Si](C)(C)N[Si](C)(C)C please.
Resp: No

Req: Tell me the assay call for CCc1cccc(CC)c1N please.
Resp: Yes

Req: Tell me the assay call for COc1ccccc1[N+](=O)[O-] please.
Resp: No

Req: Tell me the assay call for OC1CCCCC1 please.
Resp: No

Req: Tell me the assay call for C=CC(=O)NCOCCCC please.
Resp: No

Req: Tell me the assay call for Cc1ccccc1C=O please.
Resp: No

Req: Tell me the assay call for OCC(CO)(CO)CO please.
Resp: No

Req: Tell me the assay call for CCCCCCCCO please.
Resp: No

Req: Tell me the assay call for Cc1ccc(C(C)C)cc1 please.
Resp: No

Req: Tell me the assay call for Brc1ccc(Oc2ccc(Br)cc2)cc1 please.
Resp: Yes

Req: Tell me the assay call for CO[Si](CCCNCCN)(OC)OC please.
Resp: No

Req: Tell me the assay call for Cc1cc(C)cc(O)c1 please.
Resp: No

Req: Tell me the assay call for CC1(C)[C@@H](O[C@H]2O[C@H](C(=O)O)[C@@H](O)[C@H](O)[C@H]2O[C@@H]2O[C@H](C(=O)O)[C@@H](O)[C@H](O)[C@H]2O)CC[C@]2(C)[C@H]3C(=O)C=C4[C@@H]5C[C@@](C)(C(=O)O)CC[C@]5(C)CC[C@@]4(C)[C@]3(C)CC[C@@H]12 please.
Resp: No

Req: Tell me the assay call for CCCN(CCC)C(=O)SCC please.
Resp: No

Req: Tell me the assay call for CCOC(=O)CC(=O)OCC please.
Resp: No

Req: Tell me the assay call for COC(=O)OC please.
Resp: No

Req: Tell me the assay call for NC(=O)NC(N)=O please.
Resp: No

Req: Tell me the assay call for COc1ccc2cc3[n+](cc2c1OC)CCc1cc2c(cc1-3)OCO2 please.
Resp: No
